Test system: IGROV
Assay: Inhibition of cell growth by colorimetric SRB assay, IGROV
Format: cell-based
Conditions: Homo sapiens, 48 hours exposure, total growth inhibition, read-out: TGI
Quick rule for you: IC (total growth inhibition) at 10 µM or higher means label 1, lower means label 0.

Task: Identify whether the reported IC (total growth inhibition) of the following molecule is 10 µM or greater: C/C=C\[C@H](C)[C@H]1OC1(C)[C@@H](O[Si](C)(C)C(C)(C)C)[C@@H](CO)C(=O)[C@@H](CO)[C@H](O)CC(=O)CC (stereo partly drawn) [31b + 31d]
Result: label 1

Task: Identify whether the reported IC (total growth inhibition) of the following molecule is 10 µM or greater: C/C=C\[C@H](C)[C@H]1OC1(C)[C@@H](O[Si](C)(C)C(C)(C)C)[C@@H](CO[Si](C)(C)C(C)(C)C)C(=O)[C@H](CO[Si](C)(C)C(C)(C)C)[C@H](CC(=O)CC)O[Si](C)(C)C(C)(C)C (stereo partly drawn) [Compound 19a]
Result: label 1

Task: Identify whether the reported IC (total growth inhibition) of the following molecule is 10 µM or greater: C/C=C\[C@H](C)[C@H]1OC1(C)[C@@H](O)[C@@H](CO)C(=O)[C@@H](CO)[C@H](O)CC(=O)CC (stereo partly drawn) [3d + 4d]
Result: label 1

Task: Identify whether the reported IC (total growth inhibition) of the following molecule is 10 µM or greater: C/C=C\[C@H](C)[C@H]1OC1(C)[C@@H](O[Si](C)(C)C(C)(C)C)[C@@H](COC(C)=O)C(=O)[C@H](CO)[C@@H](O)CC(=O)CC (stereo partly drawn) [Compound 46]
Result: label 1

Task: Identify whether the reported IC (total growth inhibition) of the following molecule is 10 µM or greater: C/C=C\[C@H](C)[C@H]1OC1(C)[C@@H](O[Si](C)(C)C(C)(C)C)[C@@H](COC(C)=O)C(=O)[C@H](COC(C)=O)[C@H](O)CC(=O)CC (stereo partly drawn) [Compound 44]
Result: label 0

Task: Identify whether the reported IC (total growth inhibition) of the following molecule is 10 µM or greater: C/C=C\[C@H](C)[C@H]1OC1(C)[C@@H](O[Si](C)(C)C(C)(C)C)[C@@H](COC(C)=O)C(=O)[C@H](COC(C)=O)[C@@H](CC(=O)CC)OC(C)=O (stereo partly drawn) [Compound 45]
Result: label 1

* * *

System: PANC-1
Assay: Inhibition of cell growth by colorimetric SRB assay, PANC-1
Assay type: cell-based
Settings: Homo sapiens; PANC-1; 48 hours exposure; cell killing; read-out: LC50 (the source's name)
Source text: The finality of these assays is to interrupt the growth of a “in vitro” tumor cell culture by means a continued exhibition of the cells to the sample to be testing. Inhibition of Cell Growth by Colorimetric Assay. A colorimetric type of assay, using sulforhodamine B (SRB) reaction has been adapted for a quantitative measurement of cell growth and viability (following the technique described by P. A. Skehan, et al., J. Natl. CancerInst. 1990, 82, 1107-1112). […]
Exercise: state measured CC50 for each of the molecules provided.
Report as a plain number; the unit µM is understood.

Task: Item C/C=C\[C@H](C)[C@H]1OC1(C)[C@@H](O[Si](C)(C)C(C)(C)C)[C@@H](CO[Si](C)(C)C(C)(C)C)C(=O)[C@@H](CO[Si](C)(C)C(C)(C)C)[C@@H](CC(=O)CC)O[Si](C)(C)C(C)(C)C (stereo partly shown) [Compound 30b] has what recorded CC50?
Result: 12.1

Task: Item C/C=C\[C@H](C)[C@H]1OC1(C)[C@@H](O[Si](C)(C)C(C)(C)C)[C@@H](COC(C)=O)C(=O)[C@H](COC(C)=O)[C@H](O)CC(=O)CC (stereo partly shown) [Compound 44] has what recorded CC50?
Result: 13.8

Task: Item C/C=C\[C@H](C)[C@H]1OC1(C)[C@@H](O[Si](C)(C)C(C)(C)C)[C@@H](COC(C)=O)C(=O)[C@H](CO)[C@@H](O)CC(=O)CC (stereo partly shown) [Compound 46] has what recorded CC50?
Result: 18.9

* * *

Test system: IGROV-ET
Assay: Inhibition of cell growth by colorimetric SRB assay, IGROV-ET
Format: cell-based
Details: Homo sapiens; IGROV-ET; 48 hours exposure; total growth inhibition; read-out: TGI
Description: The finality of these assays is to interrupt the growth of a “in vitro” tumor cell culture by means a continued exhibition of the cells to the sample to be testing. Inhibition of Cell Growth by Colorimetric Assay. A colorimetric type of assay, using sulforhodamine B (SRB) reaction has been adapted for a quantitative measurement of cell growth and viability (following the technique described by P. A. Skehan, et al., J. Natl. CancerInst. 1990, 82, 1107-1112). […]
Exercise: state measured IC (total growth inhibition) for each of the compounds provided.
Report as a plain number; the unit µM is understood.

Task: // lookup IC (total growth inhibition) | system=IGROV-ET | key= C/C=C\[C@H](C)[C@H]1O[C@@]1(C)[C@@H](O)[C@@H](CO)C(=O)[C@@H](CO)[C@@H](O)CC(=O)CC [3c + 4c]
Result: 6.95

Task: // lookup IC (total growth inhibition) | system=IGROV-ET | key= C/C=C\[C@H](C)[C@H]1OC1(C)[C@@H](O[Si](C)(C)C(C)(C)C)[C@@H](CO)C(=O)[C@@H](CO)[C@H](O)CC(=O)CC (stereo partly drawn) [31b + 31d]
Result: 20.5

Task: // lookup IC (total growth inhibition) | system=IGROV-ET | key= C/C=C\[C@H](C)[C@H]1OC1(C)[C@@H](O[Si](C)(C)C(C)(C)C)[C@@H](COC(C)=O)C(=O)[C@H](COC(C)=O)[C@@H](CC(=O)CC)OC(C)=O (stereo partly drawn) [Compound 45]
Result: 16.3

Task: // lookup IC (total growth inhibition) | system=IGROV-ET | key= C/C=C\[C@H](C)[C@H]1OC1(C)[C@@H](O)[C@@H](CO)C(=O)[C@H](CO)[C@H](O)CC(=O)CC (stereo partly drawn) [3b + 4b]
Result: 26.8

Task: // lookup IC (total growth inhibition) | system=IGROV-ET | key= C/C=C\[C@H](C)[C@H]1OC1(C)[C@@H](O[Si](C)(C)C(C)(C)C)[C@@H](CO[Si](C)(C)C(C)(C)C)C(=O)[C@@H](CO[Si](C)(C)C(C)(C)C)[C@@H](CC(=O)CC)O[Si](C)(C)C(C)(C)C (stereo partly drawn) [Compound 30b]
Result: 12.1

Task: // lookup IC (total growth inhibition) | system=IGROV-ET | key= C/C=C\[C@H](C)[C@H]1O[C@@]1(C)[C@@H](O)[C@@H](COC(C)=O)C(=O)[C@H](CO)[C@@H](O)CC(=O)CC [Compound 47]
Result: 1.08

* * *

System: LNCaP
Test: Inhibition of cell growth by colorimetric SRB assay, LN-caP
Type: cell-based
Conditions: Homo sapiens, LN-caP, 48 hours exposure, cell killing, read-out: LC50 (the source's name)
Exercise: state measured CC50 for each of the compounds provided.
Report as a plain number; the unit µM is understood.

Task: Item `C/C=C\[C@H](C)[C@H]1O[C@@]1(C)[C@@H](O)[C@@H](CO)C(=O)[C@@H](CO)[C@@H](O)CC(=O)CC` has what recorded CC50?
Result: 26.8

Task: Item C/C=C\[C@H](C)[C@H]1OC1(C)[C@@H](O[Si](C)(C)C(C)(C)C)[C@@H](CO[Si](C)(C)C(C)(C)C)C(=O)[C@H](CO[Si](C)(C)C(C)(C)C)[C@H](CC(=O)CC)O[Si](C)(C)C(C)(C)C (stereo partly drawn) [Compound 19a] has what recorded CC50?
Result: 12.1

Task: Item C/C=C\[C@H](C)[C@H]1OC1(C)[C@@H](O[Si](C)(C)C(C)(C)C)[C@@H](CO[Si](C)(C)C(C)(C)C)C(=O)[C@H](CO[Si](C)(C)C(C)(C)C)[C@@H](CC(=O)CC)O[Si](C)(C)C(C)(C)C (stereo partly drawn) [Compound 19b] has what recorded CC50?
Result: 12

Task: Item C/C=C\[C@H](C)[C@H]1OC1(C)[C@@H](O)[C@@H](CO)C(=O)[C@H](CO)[C@H](O)CC(=O)CC (stereo partly drawn) has what recorded CC50?
Result: 26.8

Task: Item C/C=C\[C@H](C)[C@H]1OC1(C)[C@@H](O[Si](C)(C)C(C)(C)C)[C@@H](COC(C)=O)C(=O)[C@H](CO)[C@H](O)CC(=O)CC (stereo partly drawn) has what recorded CC50?
Result: 15.4

Task: Item C/C=C\[C@H](C)[C@H]1OC1(C)[C@@H](O[Si](C)(C)C(C)(C)C)[C@@H](CO)C(=O)[C@H](CO)[C@H](O)CC(=O)CC (stereo partly drawn) [20b + 20d] has what recorded CC50?
Result: 20.5

Task: Item C/C=C\[C@H](C)[C@H]1OC1(C)[C@@H](O[Si](C)(C)C(C)(C)C)[C@@H](COC(C)=O)C(=O)[C@H](COC(C)=O)[C@H](O)CC(=O)CC (stereo partly drawn) has what recorded CC50?
Result: 16.6

Task: Item `C/C=C\[C@H](C)[C@H]1O[C@@]1(C)[C@@H](O)[C@@H](COC(C)=O)C(=O)[C@H](CO)[C@@H](O)CC(=O)CC` has what recorded CC50?
Result: 8.88

Task: Item C/C=C\[C@H](C)[C@H]1OC1(C)[C@@H](O[Si](C)(C)C(C)(C)C)[C@@H](COC(C)=O)C(=O)[C@H](CO)[C@@H](O)CC(=O)CC (stereo partly drawn) has what recorded CC50?
Result: 15.6

Task: Item C/C=C\[C@H](C)[C@H]1OC1(C)[C@@H](O[Si](C)(C)C(C)(C)C)[C@@H](COC(C)=O)C(=O)[C@H](COC(C)=O)[C@@H](CC(=O)CC)OC(C)=O (stereo partly drawn) has what recorded CC50?
Result: 16.3

Task: Item `C/C=C\[C@H](C)[C@H]1O[C@@]1(C)[C@@H](O)[C@@H](CO)C(=O)[C@H](CO)[C@@H](O)CC(=O)CC` has what recorded CC50?
Result: 5.32
